- System: Plasmodium falciparum
- protocol summary: GSK_TCMDC: Inhibition of Plasmodium falciparum Dd2 in whole red blood cells, using parasite LDH activity as an index of growth. Test compounds present at 2uM
- Assay type: functional
Parameter Inhibition: see the listing below.
readout: Inhibition

>>> endpoint_value("Cc1ccc(Cl)cc1N1CCN(CCCNC(=O)C2CCN(c3nc4ccccc4[nH]3)CC2)CC1")
"0%"
>>> endpoint_value("Cc1cccc2nc(-c3ccc(-c4cccc(C(=O)NCCN5CCCC5)c4)s3)[nH]c12")
"2%"
>>> endpoint_value("CCCCCCCCN1CCN(CCCCCCNc2c3ccccc3nc3ccccc23)CC1.Cl")
"100%"
>>> endpoint_value("Cc1nn(CC(C)C)c2sc(C(=O)N3CCN(S(=O)(=O)c4ccc(C#N)cc4)CC3)cc12")
"99%"
>>> endpoint_value("COc1ccc(C(=O)C2CC2CN(C)CC(O)c2cc(C)c(OC)cc2C)cc1.O=C(O)C(F)(F)F (stereo not drawn)")
"77%"
>>> endpoint_value("CCCCNCC(O)COc1ccccc1-c1ccc(N/N=C/c2cccc3ccccc23)nn1 (stereo not drawn)")
"8%"
>>> endpoint_value("COc1ccc2c(c1)ncn2-c1cc(OCc2ccncc2Br)c(C(N)=O)s1")
"50%"
>>> endpoint_value("Cn1c(N)c(C(=O)CSc2ncc(-c3ccc(F)cc3)n2Cc2ccccc2)c(=O)n(C)c1=O")
"66%"
>>> endpoint_value("O=C(Nc1ccc(Cl)cc1)c1cccc(CN2CCCN(Cc3cccc(O)c3)CC2)c1.O=C(O)C(F)(F)F")
"43%"
>>> endpoint_value("O=C(Nc1ccc2c(c1)OCO2)c1cc(-c2cccnc2)nc2ccc(Cl)cc12")
"41%"
>>> endpoint_value("C[C@@H](Oc1cc(-n2cnc3ccc(OCC4CCN(S(C)(=O)=O)CC4)cc32)sc1C(N)=O)c1ccccc1C(F)(F)F")
"50%"
>>> endpoint_value("Cc1cc(N2CCC(N(C)C)C2)nc(Nc2ccc(Cl)cc2)n1 (stereo not drawn)")
"17%"
>>> endpoint_value("CC(C)c1ccc(NC(=O)c2ccc(CN3CCCN(Cc4cccc(O)c4)CC3)cc2)cc1.O=C(O)C(F)(F)F")
"58%"
>>> endpoint_value("CN(C)CCN(C)Cc1ccc(-c2cccc(-c3nc4ccccc4[nH]3)c2)cc1.O=C(O)C(F)(F)F")
"78%"
>>> endpoint_value("Cc1ccc(-c2ccc3c(c2)C=C(C(=O)NC2CCN(CCNC(=O)c4cccc(C(F)(F)F)c4)CC2)CCC3)cc1.O=C(O)C(F)(F)F")
"56%"
>>> endpoint_value("COc1cc(Nc2ccnc3ccc(C(C)(C)C)cc23)cc(OC)c1OC")
"80%"
>>> endpoint_value("Cc1ccc(-c2nn3c(O)c4c(nc3c2C)CCCC4)cc1")
"87%"
>>> endpoint_value("Cc1cc(NC(=O)NCCN2CCC(NS(=O)(=O)c3ccc(Br)cc3)C2)c2ccccc2n1.O=C(O)C(F)(F)F (stereo not drawn)")
"51%"

* * *

- Test system: Plasmodium falciparum
- protocol summary: GSK_TCMDC: Inhibition of Plasmodium falciparum Dd2 in whole red blood cells, using parasite LDH activity as an index of growth. Test compounds present at 2uM
- Assay type: functional
Catalogue of Inhibition readings, one per entry.
readout: Inhibition (%)

>>> endpoint_value("Cc1cc(N2CCC(NS(=O)(=O)c3ccc(F)cc3)CC2)nc(Nc2cccc(C#N)c2)n1.O=C(O)C(F)(F)F")
65
>>> endpoint_value("CN(CCC(CCN1CCC(c2c[nH]c3ccccc23)CC1)c1ccccc1)C(=O)Nc1ccc(Cl)c(Cl)c1 (centres undefined)")
21
>>> endpoint_value("Cl.N#Cc1ccc2c(c1)CCN(CCC1CCC(NC(=O)/C=C/c3cnc4ccccc4c3)CC1)CC2 (centres undefined)")
21
>>> endpoint_value("COc1ccc(CNCc2ccc(-c3ccc(-c4nc5cccc(C)c5[nH]4)s3)cc2)cc1.O=C(O)C(F)(F)F")
89
>>> endpoint_value("COC1CCC(C(=O)Nc2ccc(-c3cccc(-c4nc5cc(C(F)(F)F)ccc5[nH]4)c3)cc2)CC1 (centres undefined)")
48
>>> endpoint_value("Cc1[nH]c(C)c(-c2ccc(-c3ccc(OCC(F)(F)F)cc3)nc2)c(=O)c1Cl")
96
>>> endpoint_value("O=C(/C=C/c1ccc(Cl)c(Cl)c1)NCCCCCN1CCC(NC(=S)Nc2cccc(Cl)c2)CC1")
43
>>> endpoint_value("COc1cc(NC(=O)c2cccs2)c(C(=O)NCc2ccc(C)cc2)cc1OC")
88
>>> endpoint_value("Cc1cc(O)c2c3c1C(=O)C=C1C3c3c(c(O)cc(O)c3C(=O)C1(C)C)C2=O (centres undefined)")
46
